# Target System: CRBN_C287 (Homo sapiens)
# Construct: endogenous in cells; host or cells: cell lysate
# Sequence (Q96SW2 whole entry): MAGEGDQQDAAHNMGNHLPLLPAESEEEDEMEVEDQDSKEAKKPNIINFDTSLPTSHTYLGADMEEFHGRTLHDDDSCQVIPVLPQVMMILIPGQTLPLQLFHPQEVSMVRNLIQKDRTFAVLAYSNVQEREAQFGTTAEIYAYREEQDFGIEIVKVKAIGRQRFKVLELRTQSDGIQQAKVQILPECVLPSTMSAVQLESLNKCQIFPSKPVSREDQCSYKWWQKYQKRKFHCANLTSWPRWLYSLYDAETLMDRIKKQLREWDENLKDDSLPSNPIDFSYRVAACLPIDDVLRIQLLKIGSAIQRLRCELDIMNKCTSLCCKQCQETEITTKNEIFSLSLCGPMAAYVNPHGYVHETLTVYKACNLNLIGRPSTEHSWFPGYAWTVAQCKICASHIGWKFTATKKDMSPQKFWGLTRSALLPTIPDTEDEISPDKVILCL
# Procedure Details: CRBN C287 inhibition, probe labeling in lysate (Example 42)
# Assay type: binding
# Measurement Context: 500 uM, lysate, 1 h; read-out: % inh @ 500 uM (CRBN_C287, lysate 1 h)
Reported Metric: inhibition at 500 µM
# output: numeric value plus its unit

For the compound C=CC(=O)N1CCC(Oc2cc(-c3ccccc3OC)ccc2C(N)=O)CC1 , what inhibition at 500 µM is on record?
64.6%

Same question for C=CC(=O)N1CCC(Oc2cccc(-c3ccccc3OCC)c2)CC1 please.
59.8%

Same question for CN(C)C/C=C/C(=O)N1CCC(Oc2cccc(-c3ccccc3)c2)CC1 please.
52.4%

Same question for C#CC(=O)N1CCC(Oc2cccc(-c3ccccc3OC)c2)CC1 please.
88.8%

Same question for C=CC(=O)N1CCC(Oc2cccc(-c3ccccc3OC)c2C#N)CC1 please.
57.6%

Same question for C=CC(=O)N1CCC(Oc2cc(OC)cc(-c3ccccc3OC)c2)CC1 please.
89.3%

Same question for C=CC(=O)N1CCC(Oc2cccc(-c3ccccc3Cl)c2)CC1 please.
64.8%

Same question for C=CC(=O)N1CCC(Oc2cccc(-c3ccccc3OC)c2Cl)CC1 please.
60.4%

Same question for C=CC(=O)N1CCC(Oc2cc(C#N)cc(-c3ccccc3OC)c2)CC1 please.
94.5%

====

Would you kindly list inhibition at 500 µM for each of these molecules?
# Target System: CRBN Cys287 (Homo sapiens, UniProt Q96SW2)
# Construct: endogenous in cells
# Sequence (Q96SW2 whole entry): as above
# Procedure Details: Inhibition of iodoacetamide probe labeling of CRBN cysteines, cell lysate (Table 3A)
# Assay type: binding
# Measurement Context: 500 micromolar, cell lysate, 1 h; read-out: % inhibition of iodoacetamide probe labeling, Cys287
# unit: % | format: bare number

For the molecule C=CC(=O)N1CC(Oc2ccc(Cl)cc2)C1 , what inhibition at 500 µM is on record?
96

Same question for CC(/C=C(\C#N)C(=O)N1CCC(Oc2cccc(C#N)c2)CC1)c1ccccc1 (centres unmarked) please.
95

Same question for CC(/C=C(\C#N)C(=O)N1CCC(c2ccccc2)C1)c1ccccc1 (centres unmarked) please.
92

Same question for COc1ccccc1-c1cc(C#N)cc(OC2CCN(C(=O)/C(C#N)=C/C(C)(C)C)CC2)c1 please.
99

Same question for C=CC(=O)N1CCC(Oc2cc(C(=O)N(C)C)cc(-c3ccccc3OC)c2)CC1 please.
91
